# System: U2OS
# assay-info: cell viability relative to DMSO; higher = less toxic
# measurement-context: 72 h; 10 nM
Listed next: entries and their corresponding cell viability.

# molecule, measured-target, cell viability [%]
measured = [
    ("COc1ccccc1N1CCN(CCN(C(=O)C2CCCCC2)c2ccccn2)CC1", "U2OS", 99.6),
    ("Fc1ccc(C(c2ccccc2)(c2ccccc2F)n2ccnc2)cc1 (centres undefined)", "U2OS", 107),
    ("Nc1ccc(S(=O)(=O)Nc2ccc(Cl)nn2)cc1", "U2OS", 93),
    ("NC(=O)c1cccc2cn(-c3ccc([C@@H]4CCCNC4)cc3)nc12", "U2OS", 95.4),
    ("CC(=O)N[C@@H](CC(=O)O)C(=O)N[C@@H](CCC(=O)O)C(=O)O", "U2OS", 96.2),
    ("COc1cccc(N(C)C(=S)Oc2ccc3c(c2)CCCC3)n1 [liranaftate]", "U2OS", 98.3),
    ("C[C@H]1CN(C[C@H](Cc2ccccc2)C(=O)NCC(=O)O)CC[C@@]1(C)c1cccc(O)c1", "U2OS", 97.3),
    ("COc1cc(C(=O)NCC2(N(C)C)CCCC2)cc(OC)c1OCc1ccccc1", "U2OS", 104),
    ("CCc1nn(CCO)c(CC)c1Oc1cc(C#N)cc(C#N)c1", "U2OS", 97.6),
    ("O=C(Nc1ccncc1)c1cc([N+](=O)[O-])ccc1Cl", "U2OS", 104),
    ("CCCCC[C@H](O)/C=C/[C@H]1[C@H](O)CC(=O)[C@@H]1C/C=C\\CCCC(=O)O", "U2OS", 98.2),
    ("NCCCC[C@H](N)C(=O)O", "U2OS", 96.7),
    ("C[C@@H](NC(=O)CCc1nc2ccccc2c(=O)[nH]1)c1ccccc1", "U2OS", 98),
    ("CN1CCCC(n2nc(Cc3ccc(Cl)cc3)c3ccccc3c2=O)CC1 (centres undefined)", "U2OS", 111),
    ("Cc1cc(Nc2cc(CN3CCOCC3)c3nc(C)c(Cc4ccc(Cl)cc4F)n3n2)n[nH]1", "U2OS", 105),
    ("CS(=O)(=O)c1ccc(-c2cc(Br)sc2-c2ccc(F)cc2)cc1", "U2OS", 98.1),
    ("Cc1sc2c(c1C)C(c1ccc(Cl)cc1)=N[C@@H](CC(=O)Nc1ccc(OCCOCCOCCOCCNc3cccc4c3C(=O)N(C3CCC(=O)NC3=O)C4=O)cc1)c1nnc(C)n1-2 (some centres undefined)", "U2OS", 93.6),
    ("C#CC1(OCC(O)CN2CCN(c3cccc(C(F)(F)F)c3)CC2)CCCCC1 (centres undefined)", "U2OS", 98.6),
    ("CNC(=O)N(C)N=O", "U2OS", 95.7),
]

###

Quick list: cell viability per entry.
# Tested on: U2OS
# assay-info: cell viability relative to DMSO; higher = less toxic
# measurement-context: 72 h; 100 nM
measured-property: cell viability (%)

# molecule, measured-target, measurement
data = [
    ("C[C@@H](c1nc(-c2ccc(C#N)cc2)cs1)[C@](O)(Cn1cncn1)c1ccc(F)cc1F [ravuconazole]", "U2OS", 95.9),
    ("CN(C)N(C)C(=O)[C@@]1(Cc2ccccc2)CCCN(C(=O)[C@@H](Cc2c[nH]c3ccccc23)NC(=O)C(C)(C)N)C1 [anamorelin]", "U2OS", 104),
    ("O=C(O)[C@H]1CN(C/C=C/P(=O)(O)O)CCN1 [midafotel]", "U2OS", 99),
    ("O=C(O)C(O)Cc1ccc(O)c(O)c1 (stereo not drawn) [sodium-danshensu]", "U2OS", 96.3),
    ("Cc1cc(Nc2cc(CN3CCOCC3)c3nc(C)c(Cc4ccc(Cl)cc4F)n3n2)n[nH]1", "U2OS", 104),
    ("Cc1cc(C)c(NC(=O)N(Cc2ccc3c(c2)Cc2ccccc2-3)C2CCCCCC2)c(C)c1 [YM-750]", "U2OS", 94.8),
    ("C[C@@H](NC(=O)c1ncnc(N)c1Cl)c1ncc(C(=O)Nc2cc(C(F)(F)F)c(Cl)cn2)s1 [MLN2480]", "U2OS", 103),
    ("COc1cccc(-c2cc(=O)c3ccccc3o2)c1N", "U2OS", 98.7),
    ("Cc1ncc([N+](=O)[O-])n1CC(O)CN1CCOCC1 (stereo not drawn) [morinidazole]", "U2OS", 106),
    ("CN1CCC(=C2c3ccccc3CC(=O)c3sccc32)CC1 [ketotifen]", "U2OS", 103),
    ("CC(C)c1ccc2c(c1)CC[C@H]1[C@](C)(CN)CCC[C@]21C [lylamine]", "U2OS", 103),
    ("Cc1sc2c(c1C)C(c1ccc(Cl)cc1)=N[C@@H](CC(=O)Nc1ccc(OCCOCCOCCOCCNc3cccc4c3C(=O)N(C3CCC(=O)NC3=O)C4=O)cc1)c1nnc(C)n1-2 (stereo partly drawn) [ARV-825]", "U2OS", 96.9),
    ("CC(C)c1cnn2c(NCc3ccccc3)cc(NCCCCCCN)nc12 [BS-181]", "U2OS", 101),
    ("Cc1cc(C(=O)Nc2cc(Oc3ccc4nc(NC(=O)C5CC5)cn4n3)ccc2C)n(C)n1 [TAK-593]", "U2OS", 98.4),
    ("COc1cccc(N(C)C(=S)Oc2ccc3c(c2)CCCC3)n1 [liranaftate]", "U2OS", 95.5),
    ("Cc1cccc(C)c1NC(=O)CN1CCN(CCCC(c2ccc(F)cc2)c2ccc(F)cc2)CC1 [lidoflazine]", "U2OS", 101),
    ("CCCOCCn1c(=O)c(N2CCN(CCO)CC2)nc2cnc(-c3ccc(OC)nc3)cc21", "U2OS", 103),
    ("O=C1c2ccccc2C(Cc2ccncc2)(Cc2ccncc2)c2ccccc21 [XE-991]", "U2OS", 100),
]

###

# Test system: U2OS
# assay-info: cell viability relative to DMSO; higher = less toxic
# measurement-context: 72 h; 1 nM

# molecule, cell viability (%)
records = [
    ("COc1ccc(CCc2nc3cc(-c4c(C)noc4C)ccc3n2C[C@H](C)N2CCOCC2)cc1Cl [SGC-CBP30]", 94.7),
    ("CC(=O)Nc1ccc(CC(=O)O)cc1 [actarit]", 98.1),
    ("CC(=O)/N=c1/sc(S(N)(=O)=O)nn1C [methazolamide]", 105),
    ("CCOC(=O)Nc1ccc(NCc2ccc(F)cc2)nc1N [flupirtine]", 100),
    ("CC(=O)N(O)C/C=C/c1cccc(Oc2ccccc2)c1 [BW-A4C]", 95.4),
    ("CC(C)N(CCC(C(N)=O)(c1ccccc1)c1ccccn1)C(C)C (centres undefined) [disopyramide]", 103),
    ("C=CCn1c(=O)c2cnc(Nc3ccc(N4CCN(C)CC4)cc3)nc2n1-c1cccc(C(C)(C)O)n1 [MK-1775]", 102),
    ("Fc1ccc(C(c2ccccc2)(c2ccccc2F)n2ccnc2)cc1 (centres undefined) [flutrimazole]", 108),
    ("C[C@H](N)C(=O)N[C@@H](CCC(N)=O)C(=O)O [dipeptamin]", 95.9),
]

###

# Tested on: Vero E6
# assay-info: cell viability relative to DMSO; higher = less toxic
# measurement-context: 72 h; 10 nM

# compound, unit-annotation, cell viability
records = [
    ("C[C@@H](c1nc(-c2ccc(C#N)cc2)cs1)[C@](O)(Cn1cncn1)c1ccc(F)cc1F", "%", 95.9),
    ("CC(=O)C1=C(O)[C@@H]2[C@H]3c4c[nH]c5cccc(c45)C[C@H]3C(C)(C)N2C1=O", "%", 96.5),
    ("C/C(=N\\c1ccccc1N)c1c(C)cc(=O)n(O)c1O", "%", 104),
    ("O=C1NC(=O)c2cc(Nc3ccc(F)cc3)c(Nc3ccc(F)cc3)cc21", "%", 97.1),
    ("O=C(O)c1cccnc1C(=O)O", "%", 97.4),
    ("Cc1[nH]c2ccccc2c1CCNCc1ccc(/C=C/C(=O)NO)cc1", "%", 97.8),
    ("COc1ccc(CCN2CCN(CCCc3ccccc3)CC2)cc1OC", "%", 92.5),
    ("Cc1cc(C)c(N(Cc2ccccc2)S(=O)(=O)c2ccc(OCCNC(=O)c3cc4ccccc4o3)cc2)c(C(=O)NO)c1", "%", 107),
    ("NS(=O)(=O)c1cc(C2(O)NC(=O)c3ccccc32)ccc1Cl (centres undefined)", "%", 102),
]

###

# Tested on: U2OS
# assay-info: relative viability EC50 (midpoint between 100% and the lowest measured viability); higher = less toxic
# measurement-context: 72 h

# compound, relative viability EC50
data = [
    ("CCNC(=O)c1n[nH]c(-c2cc(Cl)c(O)cc2O)c1-c1ccc(OC)cc1", "1.64 µM"),
    ("Cc1cc2c(cc1CC(=O)c1sccc1S(=O)(=O)Nc1onc(C)c1Cl)OCO2", "> 10 µM"),
    ("CC(=O)O[C@H]1C[C@@H]2CC[C@@H]3[C@H](CC[C@@]4(C)[C@H]3C[C@H](N3CC[N+](C)(C)CC3)[C@@H]4OC(C)=O)[C@@]2(C)C[C@@H]1N1CC[N+](C)(C)CC1", "> 10 µM"),
    ("[O-][n+]1ccccc1[S-].[O-][n+]1ccccc1[S-].[Zn+2]", "0.406 µM"),
    ("COC(=O)C(Cc1ccc(OCCn2c(=O)sc3cc(C(=O)c4ccccc4)ccc32)cc1)C(=O)OC", "> 10 µM"),
    ("CC[N+](C)(CC)CCC[n+]1c(-c2ccccc2)c2cc(N)ccc2c2ccc(N)cc21 [propidium-iodide]", "> 10 µM"),
    ("Cc1cc(C)c(NC(=O)N(Cc2ccc3c(c2)Cc2ccccc2-3)C2CCCCCC2)c(C)c1", "> 10 µM"),
]

The origin of these recorded values is the supplement of paper PMC13380429.
